assay: in vitro; conditions: human
readout kind: CC50

### Prompt Tell me its CC50 given CCC(CC)COC(=O)[C@H](C)N[P@](=O)(OC[C@H]1O[C@@](C#N)(c2ccc3c(N)ncnn23)[C@H](O)[C@@H]1O)Oc1ccccc1 [Remdesivir] as the entry.
### Response > 20 µM

====

Field: IC50. Provide a value for each of the compounds that follow.

### Prompt # return IC50 for O.O=C([O-])c1ccccn1.[C-]#[O+].[C-]#[O+].[C-]#[O+].[Re+] [Compound 1, [Re(pic)(CO)3(H2O)]] , test system: transmembrane serine protease 2 (TMPRSS2) (Homo sapiens, UniProt O15393)
Sequence (O15393 whole entry): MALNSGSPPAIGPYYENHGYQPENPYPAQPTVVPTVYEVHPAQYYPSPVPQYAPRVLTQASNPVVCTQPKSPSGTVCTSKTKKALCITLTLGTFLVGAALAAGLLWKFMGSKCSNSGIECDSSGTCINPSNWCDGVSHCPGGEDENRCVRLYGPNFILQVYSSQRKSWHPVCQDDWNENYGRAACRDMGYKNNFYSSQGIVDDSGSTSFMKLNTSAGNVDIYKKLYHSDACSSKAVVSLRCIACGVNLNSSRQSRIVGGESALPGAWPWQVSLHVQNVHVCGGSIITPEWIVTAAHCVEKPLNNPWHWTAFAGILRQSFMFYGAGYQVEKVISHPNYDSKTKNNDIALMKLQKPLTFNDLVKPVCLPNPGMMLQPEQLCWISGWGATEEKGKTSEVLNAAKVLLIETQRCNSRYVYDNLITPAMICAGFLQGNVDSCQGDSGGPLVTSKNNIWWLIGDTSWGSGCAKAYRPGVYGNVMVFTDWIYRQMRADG
### Response > 100 µM

### Prompt For transmembrane serine protease 2 (TMPRSS2) (Homo sapiens, UniProt O15393), give IC50 of the listed compound: O=C([O-])c1cc(O)ccn1.[C-]#[O+].[C-]#[O+].[C-]#[O+].[Re+] [Compound 18]
### Response > 100 µM
